target: Histamine H1 receptor (Cavia porcellus, UniProt P31389); assay: Binding constant against histamine H1 receptor (in vitro)
Sequence (P31389 whole entry): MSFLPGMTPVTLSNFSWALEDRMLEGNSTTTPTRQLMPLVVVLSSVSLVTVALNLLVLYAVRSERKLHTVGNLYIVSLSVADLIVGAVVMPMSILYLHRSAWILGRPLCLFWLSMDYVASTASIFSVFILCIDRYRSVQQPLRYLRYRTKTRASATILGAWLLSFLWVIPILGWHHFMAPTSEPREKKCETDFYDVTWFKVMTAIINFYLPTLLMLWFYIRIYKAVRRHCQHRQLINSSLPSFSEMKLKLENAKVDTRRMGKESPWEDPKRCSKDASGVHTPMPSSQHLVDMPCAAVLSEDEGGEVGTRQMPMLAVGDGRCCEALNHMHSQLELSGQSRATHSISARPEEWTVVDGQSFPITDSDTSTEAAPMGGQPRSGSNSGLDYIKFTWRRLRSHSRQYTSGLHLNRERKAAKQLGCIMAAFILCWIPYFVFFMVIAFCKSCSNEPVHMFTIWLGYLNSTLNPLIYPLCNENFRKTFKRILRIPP
MEASUREMENT NAME: Ki (nM)
Give the value in nM but do not write nM after it.

Q) Looking for the measured Ki of Cc1nc2sccn2c(=O)c1CCN1CCC(=C(c2ccc(F)cc2)c2ccc(F)cc2)CC1 , can you help?
A) 6
